B1: Calcium-binding protein 2, residues 155 to 219; numbered along this chain, Q9NPB3 (parent)
chain: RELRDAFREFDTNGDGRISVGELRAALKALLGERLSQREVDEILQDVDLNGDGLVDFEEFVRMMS

- Variants of: B1
- MEASUREMENT_DESCRIPTION: abundance fitness (aPCA) (normalised: wild type 0, dead -1); higher = more abundant; growth selection in yeast, the domain comes from the species named
- APPLIED_CONDITIONS: Homo sapiens
Definition: the class of an entry is the range in LOW = under -0.4, MID = from -0.4 up to -0.09, HIGH = -0.09 and over that contains its abundance fitness.

Exercise: Consider `D48Q` . To which abundance fitness class does it belong?
Solution: HIGH

Exercise: Consider `L31W` . To which abundance fitness class does it belong?
Solution: MID

Exercise: Consider `A29F` . To which abundance fitness class does it belong?
Solution: MID

Exercise: Consider `A26D` . To which abundance fitness class does it belong?
Solution: MID

Exercise: Consider `S19F` . To which abundance fitness class does it belong?
Solution: LOW

Exercise: Consider `T12E` . To which abundance fitness class does it belong?
Solution: HIGH

Exercise: Consider `G21I` . To which abundance fitness class does it belong?
Solution: MID

Exercise: Consider `F10G` . To which abundance fitness class does it belong?
Solution: LOW

Exercise: Consider `D52F` . To which abundance fitness class does it belong?
Solution: LOW

Exercise: Consider `D41Q` . To which abundance fitness class does it belong?
Solution: MID

Exercise: Consider `L27S` . To which abundance fitness class does it belong?
Solution: HIGH

Exercise: Consider `R4E` . To which abundance fitness class does it belong?
Solution: HIGH

Exercise: Consider `R17I` . To which abundance fitness class does it belong?
Solution: MID

Exercise: Consider `F60I` . To which abundance fitness class does it belong?
Solution: HIGH
